# System: Plasmodium falciparum
# EXPERIMENT DESCRIPTION: GSK_TCMDC: Inhibition of Plasmodium falciparum Dd2 in whole red blood cells, using parasite LDH activity as an index of growth. Test compounds present at 2uM
# Assay type: functional
Inhibition strictly under 30% means condition met; at 30% or over means condition not met.

## Task For "CN(C)CCNCc1cccc(-c2cccc(-c3nc4ccccc4[nH]3)c2)c1.O=C(O)C(F)(F)F" , is the recorded Inhibition below the cut-off of 30%?
## Result condition not met

## Task Now this one: "Cc1sc(C)c(CNCCCNc2cc(=O)c3ccccc3[nH]2)c1Br.Cl"
## Result condition met

## Task Entry "COc1ccc(Cl)cc1N1CCN(CCCNC(=O)c2ccc(-c3nc4cc(Cl)c(C)cc4[nH]3)c(F)c2)CC1" please
## Result condition not met

## Task Now the same for "Cc1cc(N)nc2ccc(-c3ccc(CN)cc3)cc12"
## Result condition not met

## Task Likewise for "OCCCCCCNc1nc(NCc2ccccc2-c2ccc(C(F)(F)F)cc2)nc(N2CCNCC2)n1" ?
## Result condition met

## Task Try this compound too: Cc1ccc(Nc2ccnc3cc(-c4nccs4)ccc23)cc1C(O)c1ccccc1.Cl (stereo not drawn)
## Result condition not met

## Task Also check CC1CN(c2cnn(Cc3ccc(NC(=O)Nc4cccc(C(F)(F)F)c4)cc3)c(=O)c2Cl)CC(C)N1.O=C(O)C(F)(F)F (stereo not drawn)
## Result condition not met

## Task How about this compound: "CC(C)(C(=O)NCCC1CCN(CCCCCNC(=O)/C=C/c2ccc(Cl)c(Cl)c2)CC1)c1ccc(Cl)cc1"
## Result condition not met

## Task Try this compound next: "Cc1ccc(-n2c(Sc3ncnc4sccc34)nnc2N2CCCC2)cc1"
## Result condition not met

## Task Now consider "CSc1nc2nc(C)c(Cc3cccc(C(F)(F)F)c3)c(C)n2n1" and answer again.
## Result condition not met

## Task Let us now turn to "O=CO.c1ccc(-c2ccc(CNCCCNc3nc4ccccc4[nH]3)cc2)cc1"
## Result condition met

## Task Field entry: "CC(=O)N1N=C(c2ccc(F)cc2)Sc2c1nc(C1CCCCC1)n2C(C)=O"
## Result condition met

## Task And the next one, "COc1ccc2nccc([C@@H](O)CN3CCC(NCCOc4ccccc4[N+](=O)[O-])CC3)c2c1.O=C(O)C(=O)O" ?
## Result condition not met

## Task Can you handle "Cc1cccc2nc(-c3cccc(-c4cccc(CNCCc5ccncc5)c4)c3)[nH]c12.O=C(O)C(F)(F)F" next?
## Result condition not met

## Task Try this compound next: "CC[C@H]1CN(C/C=C/c2ccc(OC)cc2)CC[C@H]1CCCc1ccnc2ccc(O)cc12"
## Result condition not met

## Task Next entry: "CCN(CC)Cc1ccc2c(=O)cc(CCc3cccc(F)c3F)n(CC(=O)N(Cc3ccc(-c4ccc(C(F)(F)F)cc4)cc3)C(C)C)c2c1.O=C(O)C(O)C(O)C(=O)O"
## Result condition not met

## Task Consider next the compound "CN(C)Cc1c(O)ccc2[nH]c(-c3ccc(OC(F)(F)F)cc3)nc12" in the same way.
## Result condition not met

====

# Tested on: Plasmodium falciparum
# EXPERIMENT DESCRIPTION: GSK_TCMDC: Inhibition of Plasmodium falciparum Dd2 in whole red blood cells, using parasite LDH activity as an index of growth. Test compounds present at 2uM
# Format: functional
ATTRIBUTE MEASURED: Inhibition (%)
Give the value in % but do not write % after it.

## Task Fill in the recorded Inhibition for this molecule, with Plasmodium falciparum as test system: CC(Cc1ccc(OCCN2CCN(c3cccc(Cl)c3)CC2)cc1)NCC(O)c1cccc(Cl)c1.Cl (stereo not given)
## Result 91

## Task Also need COc1ccc(C2CC(c3cccs3)=NN2C(=O)c2ccccc2)cc1OC (stereo not given) , thanks.
## Result 83

## Task # repeat for "O=[N+]([O-])c1cc(C(c2ccc(O)c([N+](=O)[O-])c2)C(Cl)(Cl)Cl)ccc1O"
## Result 98

## Task "N#Cc1cccc(NC(=O)Nc2ccc3c(c2)CN(Cc2c[nH]c4ncccc24)C3)c1" , same question.
## Result 12

## Task One more molecule: "O=C(N[C@@H](Cc1ccccc1)[C@H](O)CNC1CCCCC1)c1cc(C2CCCC2)cc(N2CCCC2=O)c1"
## Result 98

## Task Same for "CCCCCCNc1cc(C)nc2ccc(OC)cc12.Cl"
## Result 94

## Task Query "O=C(Nc1ccc(-c2nc3ccccc3[nH]2)cc1)c1cccc(S(=O)(=O)N2CCCC2)c1" next
## Result 64

## Task Try this molecule next: "CN1CCc2ccc(NC(=O)Nc3ccc(Cl)c(Cl)c3)cc2C1"
## Result 22

## Task Also need Cc1cc(NC(=O)c2coc3cc(F)c(N4CC(C)N(C)C(C)C4)cc23)cnc1-c1ccc(C#N)cc1.Cl (stereo not given) , thanks.
## Result 71

## Task What about "CCc1nc(N)nc(N)c1-c1ccc(C(C)C)cc1" ?
## Result 0

====

# System: Plasmodium falciparum
# EXPERIMENT DESCRIPTION: GSK_TCMDC: Inhibition of Plasmodium falciparum 3D7 in whole red blood cells, using parasite LDH activity as an index of growth. Test compounds present at 2uM
# Type: functional
Please go through the items and note down their Inhibition.
Response body: numeric value in %, unit text excluded.

## Task State its Inhibition on Plasmodium falciparum: Br.CC(CCON1C(N)=NC(N)=NC1(C)C)c1ccc(Cl)cc1 (stereo not drawn)
## Result 93

## Task Okay, and "CCOc1ccc2ccccc2c1C(=O)Nc1cc(C)nn1-c1nc(C)cc(=O)[nH]1" ?
## Result 93

## Task Query "COc1ccc2c(N/N=C/c3ccccc3[N+](=O)[O-])ccnc2c1" next
## Result 100

## Task Now this one: "CC(C)C[C@H](NC(=O)c1ccc(OCCN2CCOCC2)cc1)C(=O)N[C@H](/C=N/NC(=O)c1ccccc1)CCc1ccccc1"
## Result 98

## Task What do you get for "CC1(C)S(=O)(=O)CC(O)CS1(=O)=O" ?
## Result 98

## Task And "CCC(CC)(Cc1ccccc1)NC(=O)[C@H](CC(C)C)Nc1ccc(C#N)c2ccccc12.O=C(O)C(F)(F)F" ?
## Result 90

## Task // next record "COc1ccc2ncc(F)c(CCN3CCC4(CC3)COC(c3cc5c(cn3)OCCO5)=N4)c2n1.O=C(O)C(=O)O"
## Result 89

## Task Field entry: "CC(C)(C)OC(=O)/C=C(\C(=O)OCc1ccc([N+](=O)[O-])cc1)c1csc(NC(c2ccccc2)(c2ccccc2)c2ccccc2)n1"
## Result 96

## Task Now the compound "CCOc1ccc(NC(=O)c2cn3nc(-c4ccc(OCC)cc4)cc3nc2C2CCNCC2)cc1.Cl"
## Result 100

## Task Same thing, different compound: "CCCCc1ccc(S(=O)(=O)Nc2ccc3c(c2)CCN(Cc2c[nH]c4cnccc24)CC3)cc1.O=C(O)C(F)(F)F"
## Result 99

## Task And for "O=C(N[C@@H](CC1CCCCC1)C(=O)NCc1cccc2ccccc12)c1ccc(O)c(-c2ccc(Cl)c(Cl)c2)c1" ?
## Result 97

## Task Another compound to look at: "Cc1noc(C)c1-c1cccc(CNCc2ccc(-c3ccc(-c4nc5cc(C(F)(F)F)ccc5[nH]4)cc3)cc2)c1.O=C(O)C(F)(F)F"
## Result 100

## Task One more compound: "CN1CCN(CCCN(Cc2csc(-c3ccc(CNCc4ccccc4)cc3)n2)C(=O)Nc2cccc(Cl)c2)CC1.O=C(O)C(F)(F)F"
## Result 100

## Task Subsequent entry: C=CCN1C(=O)C(C(C)=O)=C(O)C1c1ccccc1 (stereo not drawn)
## Result 93

## Task Ok, now "CCCn1cc2c(ccc3nc(N)nc(N)c32)n1"
## Result 95

## Task Record: O=C(/C=C/c1ccc(Cl)cc1)NCCCCCN1CCCC(C(=O)Nc2ccc(Cl)cc2)C1 (stereo not drawn)
## Result 94

## Task Item: Cc1cccc2nc(-c3cccc(-c4ccc(NC(=O)C5CC(=O)Nc6ccccc65)cc4)c3)[nH]c12 (stereo not drawn)
## Result 87

## Task Try this compound next: "CCNc1cc(C(=O)N[C@@H](Cc2ccccc2)[C@H](O)CNC2(CC)CCCCC2)cc(N2CCCCS2(=O)=O)c1.Cl"
## Result 98

====

# Tested on: HepG2
# EXPERIMENT DESCRIPTION: GSK_TCMDC: Percent inhibition of human HepG2 cell line. Test compounds present at 10uM.
# Type: functional
With a cut-off of 40%, any Inhibition strictly below it is called 1.0; any Inhibition meeting it or above is called 0.0.

## Task Please determine if "C[C@H](NC(=O)c1c(CN2CCC(NC(=O)CC(C)(C)C)CC2)c(-c2cccs2)nc2ccccc12)C1CCCCC1" is below 40% in terms of Inhibition.
## Result 1.0

## Task "CCN(CC)CCCN(CCCN(CC)CC)c1cc(C)nc(Nc2ccc(Cl)cc2)n1.O=C(O)C(=O)O" ?
## Result 1.0

## Task Now consider O=C(Nc1cccc(C(F)(F)F)c1)c1ccc(S(=O)(=O)NCC2CCCN2CC2CCCCC2)cc1.O=C(O)C(F)(F)F (centres undefined) and answer again.
## Result 1.0

## Task Also "CCCc1cc(Cc2cnc(N)nc2N)cc(CCC)c1O.Cl" ?
## Result 0.0

## Task Then what about the molecule "NC(=O)c1sc(-n2cnc3ccc(C(=O)NCCN4CCOCC4)cc32)cc1OCc1ccccc1C(F)(F)F.O=CO" ?
## Result 1.0

## Task Same again, this time with "Cc1ccc(-n2c(Sc3ncnc4sccc34)nnc2N2CCCC2)cc1"
## Result 1.0

## Task What about this molecule? "CC(C)Cn1c(N)cc(=O)n(C)c1=O"
## Result 1.0

## Task Try this molecule next: "CN(C)Cc1ccc(-c2cc3c(-c4ccc(CN(C)C)cc4)ccnc3[nH]2)cc1.O=C(O)C(F)(F)F"
## Result 0.0

// provenance: ChEMBL document CHEMBL1157539
